Molecular target: FGFR1 (Homo sapiens, UniProt P11362)
Construct: purchased Millipore
Sequence (P11362 22-822): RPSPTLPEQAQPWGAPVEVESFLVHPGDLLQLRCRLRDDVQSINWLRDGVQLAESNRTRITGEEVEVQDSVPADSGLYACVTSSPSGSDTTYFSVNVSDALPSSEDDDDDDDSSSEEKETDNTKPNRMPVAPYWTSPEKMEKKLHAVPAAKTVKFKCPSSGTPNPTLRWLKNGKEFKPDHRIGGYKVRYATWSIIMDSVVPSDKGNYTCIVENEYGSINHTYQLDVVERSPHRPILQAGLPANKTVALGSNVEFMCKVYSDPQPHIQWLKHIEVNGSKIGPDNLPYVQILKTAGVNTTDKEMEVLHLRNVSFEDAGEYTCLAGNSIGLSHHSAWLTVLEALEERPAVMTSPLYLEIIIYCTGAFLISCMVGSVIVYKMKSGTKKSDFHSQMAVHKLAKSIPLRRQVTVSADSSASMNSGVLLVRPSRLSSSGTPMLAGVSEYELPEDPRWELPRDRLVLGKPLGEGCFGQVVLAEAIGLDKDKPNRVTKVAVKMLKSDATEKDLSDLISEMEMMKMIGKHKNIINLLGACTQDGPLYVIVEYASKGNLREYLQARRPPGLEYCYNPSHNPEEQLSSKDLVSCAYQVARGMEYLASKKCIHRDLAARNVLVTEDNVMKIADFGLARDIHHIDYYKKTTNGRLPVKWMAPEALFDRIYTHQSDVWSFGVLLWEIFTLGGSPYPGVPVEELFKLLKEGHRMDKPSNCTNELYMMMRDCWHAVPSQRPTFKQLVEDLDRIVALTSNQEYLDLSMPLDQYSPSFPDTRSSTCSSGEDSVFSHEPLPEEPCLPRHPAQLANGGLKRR
Assay: ELISA kinase assay, FGFR1
Format: biochemical
Settings: 10 μM compound; mean from two separate experiments
test readout: inhibition at 10 µM (%)

Completed entries (count: 5):
structure smiles | inhibition at 10 µM, %
Cn1cc(-c2cnc3cnn(Cc4ccccc4)c3c2)cn1 | 53
Cn1cc(-c2cnc3ccn(S(=O)(=O)c4cccc(N)c4)c3n2)cn1 | 82.2
Cn1cc(-c2cnc3cnn(S(=O)(=O)Cc4ccccc4)c3c2)cn1 | 46.1
Cn1cc(-c2cnc3ccn(S(=O)(=O)C4CCCC4)c3n2)cn1 | 34.7
Cc1ncc(-c2cnn(C)c2)cc1NS(=O)(=O)c1ccccc1 | 50

A = Cn1cc(-c2cnc3ccn(S(=O)(=O)c4ccccc4)c3c2)cn1
B = Cn1cc(-c2cnc3ccn(S(=O)(=O)C4CCCCC4)c3n2)cn1
stdin: Select the item whose inhibition at 10 µM value is smaller, choosing between A and B . Respond using the label that marks the chosen record.
stdout: B
(B: 53.3%, A: 80.4%)
